target: SARS-COV-2 RBD extracellular domain expressed with a C-terminal mouse IgG2a Fc (SARS-CoV-2); assay: Biacore SPR, mAb captured on anti-hFc, 37 C
Please provide measured kon for the entries that follow.
Give bare numbers, in M⁻¹ s⁻¹.

I'm hoping you can list kon for every binder here, please.
1. mAb15158 (antibody, V domains shown) VH: EVQLVESGGGLVQPGGSLRLSCAASGFSFSSNWMSWVRQAPGKGLEWVGNINQDGSEKYYVDSVEGRFTISRDNAKKSLYLQMNSLRAEDTAVYYCARDLGVLWFGDFVDWGQGALVTVSS VL: DIQMTQSPSSLSASVGDRVTITCRASQAISNSLAWYQQKPGKAPKLLLYAASTLESGVPSRFSGSGSGTDYTLTISSLQPEDFATYYCLQYYGSPRTFGQGTKVEIKR
2. mAb14247 (antibody, V domains shown) VH: QITLKESGPTLVKPTQTLTLTCTFSGFSLSTSAVGVGWIRQPPGKALEWLALIYWDDDKRYSPSLKSRLTITKDTSKNQLVLTMTNVDPVDTATYYCAHHTIQLIFDYWGQGTLVTVSS VL: QSALTQPASVSGSPGQSITISCTATSSDVGNYNYVSWYQQHPGKAPKLMIYEVSNRPSGVSNRFSGSKSGNTASLTISGLQAEDEADYYCSSYTSSSTPLVFGGGTKLTVLG

1. 171000
2. 1.18e+06
